- Target: MAO-B (amine oxidase [flavin-containing] B) (Homo sapiens)
- Sequence (P27338 whole entry): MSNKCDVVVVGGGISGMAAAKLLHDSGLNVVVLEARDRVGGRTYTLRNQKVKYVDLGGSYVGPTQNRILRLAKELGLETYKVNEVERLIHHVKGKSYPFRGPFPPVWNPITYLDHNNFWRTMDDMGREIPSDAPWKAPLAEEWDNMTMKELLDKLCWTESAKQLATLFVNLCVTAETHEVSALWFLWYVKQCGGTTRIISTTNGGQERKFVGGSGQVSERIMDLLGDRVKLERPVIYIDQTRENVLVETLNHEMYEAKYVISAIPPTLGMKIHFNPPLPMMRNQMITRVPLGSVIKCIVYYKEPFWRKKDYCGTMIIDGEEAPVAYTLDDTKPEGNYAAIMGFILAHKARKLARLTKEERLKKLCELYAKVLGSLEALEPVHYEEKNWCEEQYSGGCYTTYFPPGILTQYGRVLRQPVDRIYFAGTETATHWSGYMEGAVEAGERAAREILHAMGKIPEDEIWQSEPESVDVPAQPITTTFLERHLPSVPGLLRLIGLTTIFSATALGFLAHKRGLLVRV
- Experimental Details: Inhibition of human recombinant MAO-B expressed in baculovirus-infected insect cells at 1 uM after 1 hr by two-step bioluminescent assay
Observation Type: inhibition at 1 h, 1 µM (%)
Report the value in % with no unit label.

Field: example entries. Status: answers known.
{"columns": ["Smiles String", "Display Unit", "Measured Number"],
 "data": [
  ["Cc1nccc2c1[nH]c1cc(OCCCC(F)(F)F)ccc12", "%", 24],
  ["Cc1nccc2c1[nH]c1cc(OCCc3ccccc3)ccc12", "%", 39],
  ["Cc1nccc2c1[nH]c1cc(OCC(C)C)ccc12", "%", 14]
]}

Now for the compound whose inhibition at 1 h, 1 µM we want.
What measured inhibition at 1 h, 1 µM is associated with "Cc1nccc2c1[nH]c1cc(OCc3ccccc3)ccc12" on MAO-B (amine oxidase [flavin-containing] B) (Homo sapiens)? 42

----------
- Target: Amine oxidase [flavin-containing] A (Homo sapiens, UniProt P21397)
- Sequence (P21397 whole entry): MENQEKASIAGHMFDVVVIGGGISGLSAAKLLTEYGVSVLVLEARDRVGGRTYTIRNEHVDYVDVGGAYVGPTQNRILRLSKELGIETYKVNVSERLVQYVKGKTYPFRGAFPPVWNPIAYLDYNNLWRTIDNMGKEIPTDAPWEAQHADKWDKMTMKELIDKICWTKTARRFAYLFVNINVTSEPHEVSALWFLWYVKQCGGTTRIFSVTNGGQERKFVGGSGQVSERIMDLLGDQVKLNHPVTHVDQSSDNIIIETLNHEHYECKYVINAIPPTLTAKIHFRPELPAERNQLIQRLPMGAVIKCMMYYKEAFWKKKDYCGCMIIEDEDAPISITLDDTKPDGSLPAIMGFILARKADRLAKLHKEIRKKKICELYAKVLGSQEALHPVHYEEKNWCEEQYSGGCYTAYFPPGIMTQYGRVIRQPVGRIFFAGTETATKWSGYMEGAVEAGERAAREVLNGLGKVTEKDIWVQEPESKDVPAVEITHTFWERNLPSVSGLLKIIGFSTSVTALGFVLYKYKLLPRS
- Experimental Details: Inhibition of human recombinant MAO-A expressed in baculovirus-infected insect cells after 1 hr by two-step bioluminescent assay
Observation Type: Ki (nM)
Report the value in nM with no unit label.

Field: example entries. Status: answers known.
{"columns": ["Smiles String", "Observation Type", "Measured Number"],
 "data": [
  ["Cc1nccc2c1[nH]c1cc(OCC(C)C)ccc12", "Ki", 3.9],
  ["Cc1nccc2c1[nH]c1cc(OCCCC(F)(F)F)ccc12", "Ki", 3.6],
  ["Cc1nccc2c1[nH]c1cc(OCc3ccncc3)ccc12", "Ki", 35.4]
]}

I'd like to know its Ki. The compound in question is "C=CCOc1ccc2c(c1)[nH]c1c(C)nccc12" 5

Quick one: "COCCOc1ccc2c(c1)[nH]c1c(C)nccc12" 29.5

Quick one: "Cc1nccc2c1[nH]c1cc(OCCCN(C)C)ccc12" 684

Quick one: "Cc1nccc2c1[nH]c1cc(OCc3ccccn3)ccc12" 500

----------
Measured Ki, listed per entry for reference.
- Target: UniProtKB P21397
- Experimental Details: Inhibition of human recombinant MAO-A expressed in baculovirus-infected insect cells after 1 hr by two-step bioluminescent assay
Report the value in µM with no unit label.

Field: example entries. Status: answers known.
{"columns": ["Smiles String", "Display Unit", "Ki"],
 "data": [
  ["Cc1nccc2c1[nH]c1cc(OCc3ccc4ccccc4c3)ccc12", "µM", 0.1],
  ["Cc1nccc2c1[nH]c1cc(OCc3ccccc3)ccc12", "µM", 0.0126],
  ["Cc1nccc2c1[nH]c1cc(OCCN3CCOCC3)ccc12", "µM", 0.256],
  ["Cc1nccc2c1[nH]c1cc(OCCN(C)C)ccc12", "µM", 1.02],
  ["Cc1nccc2c1[nH]c1cc(OCC3CCCCC3)ccc12", "µM", 0.0043]
]}

I'd like to know its Ki. The compound in question is "Cc1nccc2c1[nH]c1cc(OCCc3ccccc3)ccc12" 0.005

Quick one: "Cc1nccc2c1[nH]c1cc(OCCO)ccc12" 0.0284

Quick one: "Cc1nccc2c1[nH]c1cc(OCc3cccnc3)ccc12" 0.0249
